Measured self-cleavage by item
B1: CPEB3 Ribozyme (parent)
chain: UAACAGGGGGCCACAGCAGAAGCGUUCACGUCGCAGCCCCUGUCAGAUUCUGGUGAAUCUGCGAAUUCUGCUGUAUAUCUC

variants of: B1; assay: self-cleavage, relative activity (ratio to wild type); higher = more cleavage; in vitro, sequencing

Mutation string	self-cleavage
G42U A77U	0.37
A45G U54A	0.85
G30A A35G	0.22
A64G C71G	0.31
U66A U72A	0.58
A35G U72C	1.26
A45G U48C	0.29
G7A U60C	0.11
A5G A45G	0.63
U72C C81A	1.05
A57G C68U	0.77
C11A	0.37
C39G A65G	0.17
A2G U51A	0.64
A5G A57C	0.28
G22C G55U	0.22
U66C A77G	0.4
G22A U43A	0.38
G55A U69G	0.34
G30C U76A	0.17
C14G U72C	0.69
U67C G70A	0.18
A64G C79A	0.84
G19U A65G	0.26
G19U A28G	0.14
A35G G63C	1.27
G19C C68U	0.63
A45G U78A	0.91
A20G G63U	0.83
C11A G33A	0.07
A47C A77G	0.34
G6A U76G	0.14
A18G C32G	0.1
A5G U54A	0.82
U1C G19U	0.4
G10C A28G	0.14
A15C U49A	0.7
A21U C81U	0.29
C14U U58C	0.77
U25C G33C	0.16
C11G A18U	0.39
C59U U60C	0.34
U1A U54G	0.76
A2U U67A	0.49
U41A U51A	0.36
A28G C39A	0.06

Taken from the RNAGym collection of RNA variant scans (doi:10.1093/nar/gkz1192).
